# Assay remarks: Parallel artificial membrane permeability (IAM column) prediction of CNS permeability
# Format: in vitro ADME
# Applied conditions: PAMPA, 2 mM
Measure name: CNS perm (PAMPA)

CN1c2ccc(OC(=O)Nc3ccncc3F)cc2[C@]2(C)CCO[C@H]12 [Compound 13]    1.3
CN1c2ccc(OC(=O)Nc3cccnc3)cc2[C@]2(C)CCO[C@H]12 [Compound 11]    1.8
CN1c2ccc(OC(=O)Nc3ccc(C(F)(F)F)cc3)cc2[C@]2(C)CCO[C@H]12 [Compound 15]    2.2
CN1c2ccc(OC(=O)Nc3ccncc3)cc2[C@]2(C)CCO[C@H]12 [Compound 8]    1.9

Attribution: patent US20230113944A1
